Assay: physchem
Format: physicochemical
Details: 40% propylene glycol in water, organic solvent or mixture, solubility
measure: solubility

molecule | recorded value
CNC(C(=O)NC1C(=O)NC(CCSC)C(=O)NC2C(=O)NC3C(=O)NC(C(=O)NC(C(=O)O)c4cc(O)cc(O)c4-c4cc3ccc4O)C(O[C@H]3C[C@@H](N)[C@@H](O)[C@H](C)O3)c3ccc(c(Cl)c3)Oc3cc2cc(c3O)Oc2ccc(cc2)C1O)c1ccc(O)cc1 (stereo partly shown) [HPB4] | > 200 mg/mL

###

Test: physchem
Type: physicochemical
Conditions: solubility

molecule | solubility
CNC(C(=O)NC1C(=O)NC(CCSC)C(=O)NC2C(=O)NC3C(=O)NC(C(=O)NC(C(=O)O)c4cc(O)cc(O)c4-c4cc3ccc4O)C(O[C@H]3C[C@@H](N)[C@@H](O)[C@H](C)O3)c3ccc(c(Cl)c3)Oc3cc2cc(c3O)Oc2ccc(cc2)C1O)c1ccc(O)cc1 (stereo partly shown) | ~300 mg/mL

###

Test: physchem
Type: physicochemical
Conditions: 40% peg-400 in water, organic solvent or mixture, solubility

molecule | solubility
CNC(C(=O)NC1C(=O)NC(CCSC)C(=O)NC2C(=O)NC3C(=O)NC(C(=O)NC(C(=O)O)c4cc(O)cc(O)c4-c4cc3ccc4O)C(O[C@H]3C[C@@H](N)[C@@H](O)[C@H](C)O3)c3ccc(c(Cl)c3)Oc3cc2cc(c3O)Oc2ccc(cc2)C1O)c1ccc(O)cc1 (stereo partly shown) [HPB4] | ~250 mg/mL
